- ASSAY_DETAILS: in vivo
- REPORTED_CONDITIONS: mouse, po
OBSERVATION_TYPE: LD50 at 24 h (mg/kg)

CCc1c(C)[nH]c2c1C(=O)C(CN1CCOCC1)CC2 (stereo not shown)
440

Ref: patent US4148896A
